Ref: paper PMC2756588

Target: T1, Abp1, P15891
T1 sequence (P15891 535-592, looked up): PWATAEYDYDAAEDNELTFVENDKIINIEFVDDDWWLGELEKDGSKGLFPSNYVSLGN
Assay: SPOT array
Conditions: median of control spots 935
Label key: True means SPOT intensity under 20; False means SPOT intensity of 20 or more.

Example cases with answers are listed next.
BINDER	DISCRETE_LABEL
LPMNIQPDLPPRKIM	False
QTREPNEPPPPSPAM	True
DLFKPLPEPPTELGR	True
PIVPSSPAPPLPLSG	True
HHKRRPTTIDVPGLT	False

Enquiry: Please indicate whether the reported SPOT intensity of SSAAPPPPPRRATPE is strictly below 20.
Return: False
